- Test target: Rac GTPase-activating protein 1 (Homo sapiens)
- Assay details: blockers of MgcRacGAP-driven Rac1 GTP hydrolysis – biochemical, ADP Hunter fluorescence, primary and confirmatory, confirmation (AID 624330);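 note: fluorescence reports GDP produced by GAP-driven GTP hydrolysis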
- Protocol conditions: MgcRacGAP-stimulated Rac1 GTP hydrolysis, at 30 µM, active compounds read high, GST-tagged Rac1 F28L mutant substrate
About 2,100 (0.62%) of roughly 340,000 compounds were called active. Not all results are given here. Entries with a potency or affinity are not part of this list.
Measured attribute: inhibition

Check out these entries, answers already filled in.
Item O=C(CCn1cnnn1)NC1CCCN(Cc2ccccc2F)C1 (stereo not drawn) was tested on Rac GTPase-activating protein 1 (Homo sapiens); the reported inhibition is -0.5% (inactive)

Item O=C(CN1N=C(c2ccccc2)CCC1=O)NCc1ccccc1 was tested on Rac GTPase-activating protein 1 (Homo sapiens); the reported inhibition is 6.27% (inactive)

Item O=C(NC(=S)Nc1ccc(F)cc1)C1CCCCC1 was tested on Rac GTPase-activating protein 1 (Homo sapiens); the reported inhibition is 6.1% (inactive)

Item CC(=O)Nc1ccc(NC(=S)NC(=O)C2CCCC2)cc1 was tested on Rac GTPase-activating protein 1 (Homo sapiens); the reported inhibition is 9.09% (inactive)

Item COC(=O)c1ccc(NC(=S)Nc2ccccc2)cc1 was tested on Rac GTPase-activating protein 1 (Homo sapiens); the reported inhibition is 5.58% (inactive)

Now look at this entry.
Item Cc1cc(C)c(S(N)(=O)=O)c(C)c1-n1cnnn1 was tested on Rac GTPase-activating protein 1 (Homo sapiens); the reported inhibition is 1.87% (inactive)
